# TESTED_SYSTEM: Cellular tumor antigen p53 (Homo sapiens)
# ASSAY_INFO: TOX21_p53_BLA_p2_ratio: Tox21 HCT-116 p53 Agonism Beta-lactamase Assay, Ratio, Phase 2 (AID 2283592)
Results filed as inconclusive are left out. The source made the active and inactive calls. The calls were made as follows: active = hit-call score of the fitted dose curve at least 0.9, where 1 is the maximum; inconclusive = response in the unintended direction; inactive = score below 0.9.
Please answer using one outcome listed in true = active, false = inactive

Task: Test call for this compound, please: Cc1ccc2ncccc2c1
Result: false

###

# ASSAY_INFO: CCTE_Shafer_MEA_acute_per_burst_spike_number_mean: CCTE's Neural Acute Assay for Average Number of Spikes Per Burst, Shafer Lab (AID 2284015);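 also: hits are decreases in mean spikes per burst versus baseline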
Active and inactive are the calls of the source. Rule for the calls: active = hit-call score of the fitted dose curve at least 0.9, where 1 is the maximum; inactive = score below 0.9.
Please answer using one outcome listed in true = active, false = inactive

Below, 3 molecules whose answers are already recorded.
Task: Test call for this molecule, please: C=CCOC(=O)c1ccccc1C(=O)OCC=C
Result: false

Task: Test call for this molecule, please: CCOC(=O)C(C)(C)Oc1ccc(Cl)cc1
Result: false

Task: Test call for this molecule, please: CC(C)(C)c1cc(O)c(C(C)(C)C)cc1O
Result: false

***
Task: Test call for this molecule, please: CN[C@H]1CC[C@@H](c2ccc(Cl)c(Cl)c2)c2ccc(S(N)(=O)=O)cc21
Result: true

Task: Test call for this molecule, please: Nc1ccc2c(c1)C(=O)c1ccccc1C2=O
Result: false

Task: Test call for this molecule, please: Nc1nc(N)c2nc(CNc3ccc(C(=O)N[C@@H](CCC(=O)O)C(=O)O)cc3)cnc2n1
Result: false

Task: Test call for this molecule, please: CCCCCCCCCCO
Result: false

Task: Test call for this molecule, please: O=C(O)CCCCC(=O)O
Result: false

Task: Test call for this molecule, please: COc1ccc(S(=O)(=O)N2C(=O)[C@@](c3ccccc3OC)(N3C[C@H](O)C[C@H]3C(=O)N(C)C)c3cc(Cl)ccc32)c(OC)c1
Result: false

Task: Test call for this molecule, please: NS(=O)(=O)c1cc2c(cc1Cl)NCNS2(=O)=O
Result: false

Task: Test call for this molecule, please: CCCc1cc(=O)[nH]c(=S)[nH]1
Result: false

Task: Test call for this molecule, please: CCCCCCCCCCCCCCCCCC(=O)O
Result: false

Task: Test call for this molecule, please: CC(=O)C(C)=CC1C(C)=CCCC1(C)C (centres undefined)
Result: false

Task: Test call for this molecule, please: CNCc1cc(F)ccc1Oc1ccc(Cl)c(Cl)c1
Result: true

###

# ASSAY_INFO: Tanguay_ZF_120hpf_SOMI_legacy: (Legacy) Oregon State University Tanguay Lab 120 Hour Post-fertilization zebrafish Assay for Somite Malformation (AID 2283647)
Inconclusive results are not listed. Calls of active or inactive are those of the source. The calls were made as follows: active = hit-call score of the fitted dose curve at least 0.9, where 1 is the maximum; inconclusive = response in the unintended direction; inactive = score below 0.9.
MEASURED_ENDPOINT: outcome

Guide cases for outcome, answers given:
So for CCCCCCC(=O)OCC , the logged outcome turned out to be inactive

So for CCOC(=O)CCC(=O)OCC , the logged outcome turned out to be inactive

So for Clc1cc(Cl)c(Cl)cc1Cl , the logged outcome turned out to be inactive

So for CN1CCN(Cc2cc(-c3ccc4[nH]c(=O)oc4c3)co2)[C@@H](c2ccc(F)cc2)C1 , the logged outcome turned out to be inactive

So for Oc1ccc2c(c1)OC[C@@H](N1CCC(O)(c3ccc(F)cc3)CC1)[C@H]2O , the logged outcome turned out to be inactive

// next item, outcome requested
So for COc1cc(S(=O)(=O)O)c(C)cc1N=Nc1c(O)ccc2cc(S(=O)(=O)O)ccc12 , the logged outcome turned out to be inactive

The values you see were collected from PubChem BioAssay (EPA / NIEHS).
